Field: NADPH fluorescence slope. Provide a value for each of the molecules that follow.
TGT: Voltage-gated potassium channel subunit beta-2 (Rattus norvegicus)
PROTOCOL_DESCRIPTION: enhancers of rat Kvbeta2 NADPH turnover – biochemical, NADPH fluorescence, primary screen (AID 623);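 note: fluorescence intensity change per second fitted from 20 to 320 s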
DETAILS: Recombinant KvBeta, NADPH fluorescence decrease slope, 10 min; at 10 µM; hits give low values
Give bare numbers.

Field: example entries. Status: answers known.
{"MOLECULE": "CNC(=O)Nc1cccc(C(F)(F)F)c1", "RECORDED_METRIC": "NADPH fluorescence slope", "NUMBER": "-5.5e-05"}
{"MOLECULE": "Cc1cc(C)c2nc(N)sc2c1", "RECORDED_METRIC": "NADPH fluorescence slope", "NUMBER": "-1.5e-05"}
{"MOLECULE": "O=C(NC1CCCCCC1)C1c2ccccc2C(=O)N1Cc1cccnc1 (stereo not drawn)", "RECORDED_METRIC": "NADPH fluorescence slope", "NUMBER": "1.2e-05"}
{"MOLECULE": "CCc1nc(SCC(=O)Nc2nccs2)c2oc3ccccc3c2n1", "RECORDED_METRIC": "NADPH fluorescence slope", "NUMBER": "-2.5e-06"}
{"MOLECULE": "Cc1onc(-c2c(Cl)cccc2Cl)c1C(=O)NCCN1CCOCC1", "RECORDED_METRIC": "NADPH fluorescence slope", "NUMBER": "3e-06"}

Below are some molecules; for each one, tell me its NADPH fluorescence slope.
1. CC1(C)Cc2noc(N)c2C(C)(C)N1O
2. CSc1ccccc1C(=O)NC1CC2CCC1C2 (stereo not drawn)
3. CCOC(=O)c1sc2nc(C)cc(C)c2c1N
4. CC(C(=O)NC1CCCCCC1)N(c1ccccc1)S(C)(=O)=O (stereo not drawn)

**A:**
1. 4.7e-05
2. -1.1e-05
3. -1.9e-05
4. -0.000126

Below are some molecules; for each one, tell me its NADPH fluorescence slope.
1. O=C(Cn1cccc1)N1CCN(C(c2ccccc2)c2ccccc2)CC1
2. Cc1ncoc1C(=O)Nc1cccc(Cl)c1C
3. CSc1nnc2c3ccccc3n(Cc3ccccc3)c2n1
4. CCN(CC)c1ccc2c(c1)CCCN2

**A:**
1. -1.1e-05
2. 8.7e-06
3. -4.8e-05
4. 3.7e-05
